pIC50 values recorded for Coagulation factor X (Homo sapiens, UniProt P00742)
pIC50 is a log-scale quantity: -log10 of the concentration expressed in molar.

Examples with answers:
{"columns": ["Smiles Entry", "pIC50"],
 "data": [
  ["CC(=O)OC[C@]1(C)C[C@@H](OC(C)=O)C[C@@]2(C)[C@@H]3CC[C@](C)(O)CC=C3CC[C@H]12", 7.09],
  ["C[C@@]1(CO)C[C@@H](O)C[C@@]2(C)[C@@H]3CC[C@](C)([C@@H](O)CO)C=C3CC[C@H]12", 5.59]
]}

Let us move to another entry and its pIC50.
Value of measured pIC50 for the entry CC(=O)OC[C@]1(C)C[C@@H](OC(C)=O)C[C@@]2(C)[C@@H]3CC[C@](C)([C@@H](O)CO)C=C3CC[C@H]12 : 5.25
